test system: P-gp (human MDR1, ABCB1); experiment: MDCK-MDR1 permeability (blood-brain barrier permeability); settings: dog
measure.name: Papp B→A at 5 uM (×10⁻⁶ cm/s)
The reply should be a number in ×10⁻⁶ cm/s, with the unit left off.

Examples with their reported Papp B→A at 5 uM follow.
compound	Papp B→A at 5 uM (×10⁻⁶ cm/s)
Cc1cc(Nc2cc(NC(=O)C3CC3)ncn2)c(=O)n2c1C(=O)NC21CCC2(CC1)CNC2	0.7
Cc1cc(Nc2cc(NC(=O)C3CC3)ncn2)c(=O)n2c1C(=O)NC21CC2(CCC2)C1	56.3
Cc1cc(Nc2cc(N)ncn2)c(=O)n2c1C(=O)NC21CCC2(CCC2)CC1	71.9
Cc1cc(Nc2cc(NC(=O)C3(CN(C)C)CC3)ncn2)c(=O)n2c1C(=O)NC21CCC2(CC2)CC1	23.4
Cc1cc(Nc2cc(N)ncn2)c(=O)n2c1C(=O)NC21CCC2(CCCC2)C1 (stereo not shown)	46.5

Measured Papp B→A at 5 uM of `Cc1cc(Nc2cc(N)ncn2)c(=O)n2c1C(=O)NC21CCC2(CC2)CC1` : 68.1

Measured Papp B→A at 5 uM of `Cc1cc(Nc2cc(N)ncn2)c(=O)n2c1C(=O)NC21CC2(CCCC2)C1` : 66.7

Measured Papp B→A at 5 uM of Cc1cc(Nc2cc(N)ncn2)c(=O)n2c1C(=O)NC21CCC2(CC1)CC2(F)F (stereo not shown) : 71

Measured Papp B→A at 5 uM of Cc1cc(Nc2cc(N)ncn2)c(=O)n2c1C(=O)NC21CCCC2(CC2)CC1 (racemic) : 62.1

Measured Papp B→A at 5 uM of `Cc1cc(Nc2cc(N)ncn2)c(=O)n2c1C(=O)NC21CC2(CCCCC2)C1` : 70.7

Measured Papp B→A at 5 uM of `Cc1cc(Nc2cc(NC(=O)C3(CN)CC3)ncn2)c(=O)n2c1C(=O)NC21CCC2(CC2)CC1` : 57.6

Measured Papp B→A at 5 uM of `Cc1cc(Nc2cc(N)ncn2)c(=O)n2c1C(=O)NC21CC2(CC(F)(F)C2)C1` : 47.2

Measured Papp B→A at 5 uM of `Cc1cc(Nc2cc(NC(=O)[C@H]3[C@@H]4CNC[C@@H]43)ncn2)c(=O)n2c1C(=O)NC21CCC2(CC2)CC1` : 15.9

Measured Papp B→A at 5 uM of Cc1cc(Nc2cc(N)ncn2)c(=O)n2c1C(=O)NC21CCCC2(CC2)C1 (stereo not shown) : 68.9

Measured Papp B→A at 5 uM of `Cc1cc(Nc2cc(NCCO)ncn2)c(=O)n2c1C(=O)NC21CCC2(CC2)CC1` : 58.1

Measured Papp B→A at 5 uM of Cc1cc(Nc2cc(N)ncn2)c(=O)n2c1C(=O)NC21C=CC2(CC2)CC1 (stereo not shown) : 52.4

---

test system: P-gp (human MDR1, ABCB1); assay: MDCK-MDR1 permeability (blood-brain barrier permeability); settings: dog
Form field: Papp A→B at 5 uM (one value per entry).
The reply should be a number in nm/s, with the unit left off.

Examples with their reported Papp A→B at 5 uM follow.
molecule	value.observed
Cc1cc(Nc2cc(N)ncn2)c(=O)n2c1C(=O)NC21CCCC2(CC2)CC1 (racemic)	529
Cc1cc(Nc2cc(NCCO)ncn2)c(=O)n2c1C(=O)NC21CCC2(CC2)CC1	76
Cc1cc(Nc2cc(NC(=O)[C@H]3[C@@H]4CNC[C@@H]43)ncn2)c(=O)n2c1C(=O)NC21CCC2(CC2)CC1	5
Cc1cc(Nc2cc(NC(=O)C3CC3)ncn2)c(=O)n2c1C(=O)NC21CC2(CCC2)C1	274
Cc1cc(Nc2cc(N)ncn2)c(=O)n2c1C(=O)NC21CCC2(CCC2)CC1	439
Cc1cc(Nc2cc(N)ncn2)c(=O)n2c1C(=O)NC21CC2(CCCCC2)C1	467
Cc1cc(Nc2cc(N)ncn2)c(=O)n2c1C(=O)NC21C=CC2(CC2)CC1 (stereo not shown)	227
Cc1cc(Nc2cc(N)ncn2)c(=O)n2c1C(=O)NC21CCCC2(CC2)C1 (stereo not shown)	504
Cc1cc(Nc2cc(NC(=O)C3(CN)CC3)ncn2)c(=O)n2c1C(=O)NC21CCC2(CC2)CC1	30
Cc1cc(Nc2cc(N)ncn2)c(=O)n2c1C(=O)NC21CCC2(CCCC2)C1 (stereo not shown)	486

Measured Papp A→B at 5 uM of `Cc1cc(Nc2cc(N)ncn2)c(=O)n2c1C(=O)NC21CC2(CCCC2)C1` : 508

Measured Papp A→B at 5 uM of Cc1cc(Nc2cc(N)ncn2)c(=O)n2c1C(=O)NC21CCC2(CC1)CC2(F)F (stereo not shown) : 187

Measured Papp A→B at 5 uM of `Cc1cc(Nc2cc(N)ncn2)c(=O)n2c1C(=O)NC21CC2(CC(F)(F)C2)C1` : 290

Measured Papp A→B at 5 uM of `Cc1cc(Nc2cc(NC(=O)C3(CN(C)C)CC3)ncn2)c(=O)n2c1C(=O)NC21CCC2(CC2)CC1` : 171

Measured Papp A→B at 5 uM of `Cc1cc(Nc2cc(NC(=O)C3CC3)ncn2)c(=O)n2c1C(=O)NC21CCC2(CC1)CNC2` : 3

Measured Papp A→B at 5 uM of `Cc1cc(Nc2cc(N)ncn2)c(=O)n2c1C(=O)NC21CCC2(CC2)CC1` : 633

---

assay: PK study in male Sprague-Dawley rats, IV 0.5 mg/kg and PO 1 mg/kg in 10% DMA/PG (Example 5); assay type: in vivo; settings: male, Sprague-Dawley, rat, in vivo, iv, 0.5 mg/kg, Vss
measure.name: Vd (L/kg)
The reply should be a number in L/kg, with the unit left off.

Measured Vd of `Cc1cc(Nc2cc(N)ncn2)c(=O)n2c1C(=O)NC21CCC2(CC2)CC1` : 0.942

---

assay: PK study in male Sprague-Dawley rats dosed once per day for five days, PO 10 mg/kg, 0.5% HPMC (Example 7); type: in vivo; details: male, Sprague-Dawley, rat, in vivo, po, 10 mg/kg, male Sprague-Dawley rats, single PO 10 mg/kg dose, 0.5% HPMC suspension; individual animals; read-out: t1/2 (converted)
measure.name: half-life (h)
The reply should be a number in h, with the unit left off.

Measured half-life of Cc1cc(Nc2cc(N)ncn2)c(=O)n2c1C(=O)NC21CCC2(CC2)CC1 [4ET-03-053] : 5.38

---

experiment: PK study in male Sprague-Dawley rats dosed once per day for five days, PO 10 mg/kg, 0.5% HPMC (Example 7); type: in vivo; conditions: male, Sprague-Dawley, rat, in vivo, po, 10 mg/kg, male Sprague-Dawley rats, single PO 10 mg/kg dose, 0.5% HPMC suspension; individual animals; read-out: Clast
measure.name: concentration at 24 h (ng/mL)
The reply should be a number in ng/mL, with the unit left off.

Measured concentration at 24 h of `Cc1cc(Nc2cc(N)ncn2)c(=O)n2c1C(=O)NC21CCC2(CC2)CC1` : 1330

---

Test: PK study in CD-1 male mice with IV and PO dosing (Example 3)
Assay type: in vivo
Conditions: male, CD-1, mouse, in vivo, iv, 1.5 mg/kg, AUClast
Protocol: Example 3: PK study of 4ET-03-053 in CD-1 male mice with IV and PO dosing In mice, following IV administration with 1.5 mg/kg, plasma concentrations declined in a multiphasic manner with an initial concentration (Co) of 708 ng/mL and a last measurable concentration (Clast) of 5.29 ng/mL at 24 h post dose.
measure.name: AUC(0-t) (ng·h/mL)
The reply should be a number in ng·h/mL, with the unit left off.

Measured AUC(0-t) of `Cc1cc(Nc2cc(N)ncn2)c(=O)n2c1C(=O)NC21CCC2(CC2)CC1` : 1300

---

test: PK study in male Sprague-Dawley rats dosed once per day for five days, PO 10 mg/kg, 0.5% HPMC (Example 7); type: in vivo; settings: male, Sprague-Dawley, rat, in vivo, po, 10 mg/kg, Sprague-Dawley rats, day five of daily PO 10 mg/kg, 0.5% HPMC suspension; mean (n = 3); read-out: AUCinf
measure.name: AUC(0-inf) (µg·h/mL)
The reply should be a number in µg·h/mL, with the unit left off.

Measured AUC(0-inf) of `Cc1cc(Nc2cc(N)ncn2)c(=O)n2c1C(=O)NC21CCC2(CC2)CC1` : 308

---

assay: Plasma and brain concentrations, brain to plasma ratio in male CD1 mice (Example 3); type: in vivo; conditions: male, CD1, mouse, plasma, 2 h post dosing, mean, read-out: Plasma Conc., Mean
measure.name: concentration at 2 h (ng/mL)
The reply should be a number in ng/mL, with the unit left off.

Measured concentration at 2 h of Cc1cc(Nc2cc(N)ncn2)c(=O)n2c1C(=O)NC21CCC2(CC2)CC1 [4ET-03-053] : 578

All figures here come from patent US20250186436A1.
